Target or test system: UniProt:Q7Z2W7
Experimental protocol: In vitro cold stimulation assay
pIC50: −log10 of the molar value.
Observable: pIC50

# Molecule, pIC50
records = [
    ("Cn1nnnc1C(=O)c1sc(-c2cccc(F)c2)nc1O [Example 32]", 7.20),
    ("O=C(c1cccnc1)c1sc(-c2cccc(F)c2)nc1O [Example 23]", 6.24),
    ("O=C(c1sc(-c2cccc(F)c2)nc1O)C1CCCN1 (centres unmarked) [Example 15]", 5.88),
    ("O=C(c1cccs1)c1sc(-c2cccc(F)c2)nc1O [Example 20]", 5.86),
]

P. O=C(c1sc(-c2ccccc2O)nc1O)N1CCCOC1 [Example 11]
Q. O=C(c1sc(-c2cccc(F)c2)nc1O)N1CCOCC1 [Example 12]
Challenge: Select the item whose pIC50 value is smaller, choosing between P and Q . Kindly state the label of the option you pick.
Response given: Q
(Q: 6.07, P: 6.97)

A. O=C(c1sc(-c2cccc(F)c2)nc1O)C1CCCO1 (centres unmarked) [Example 5]
B. O=C(c1sc(-c2ccccc2O)nc1O)N1CCOCC1 [Example 13]
Challenge: Which value of pIC50 is numerically greater: that of A or that of B ? Kindly state the label of the option you pick.
Response given: A

a. O=C(c1sc(-c2ccccc2O)nc1O)C1CCCO1 (centres unmarked) [Example 6]
b. O=C(c1sc(-c2ccccc2O)nc1O)N1CCOC1 [Example 4]
Challenge: Select the item whose pIC50 value is smaller, choosing between a and b . Kindly state the label of the option you pick.
Response given: a

1. O=C(c1sc(-c2cccc(F)c2)nc1O)N1CC2CCCC2O1 (centres unmarked) [Example 30]
2. O=C(c1sc(-c2ccccc2O)nc1O)N1CCCO1 [Example 2]
3. Cn1cccc1C(=O)c1sc(-c2cccc(F)c2)nc1O [Example 18]
Challenge: Please list the entries, largest pIC50 first. // list labels; follow requested order
Response given: 2, 1, 3
(2: 8.26, 1: 7.16, 3: 5.84)

1. O=C(c1sc(-c2cccc(F)c2)nc1O)N1CCCCCO1 [Example 27]
2. O=C(c1ccco1)c1sc(-c2cccc(F)c2)nc1O [Example 19]
Challenge: Which value of pIC50 is numerically greater: that of 1 or that of 2 ? Kindly state the label of the option you pick.
Response given: 1
(1: 7.34, 2: 5.75)

I. O=C(c1sc(-c2cccc(F)c2)nc1O)N1CCCC1 [Example 7]
II. O=C(c1sc(-c2cccc(F)c2)nc1O)n1ccnn1 [Example 31]
Challenge: Which value of pIC50 is numerically greater: that of I or that of II ? Kindly state the label of the option you pick.
Response given: II
(II: 7.30, I: 5.91)

A. O=C(c1sc(-c2cccc(F)c2)nc1O)n1cccn1 [Example 26]
B. O=C(c1ccncc1)c1sc(-c2cccc(F)c2)nc1O [Example 24]
Challenge: Select the item whose pIC50 value is smaller, choosing between A and B . Kindly state the label of the option you pick.
Response given: A

A. O=C(c1sc(-c2cccc(F)c2)nc1O)N1CCCCO1 [Example 9]
B. O=C(c1sc(-c2cccc(F)c2)nc1O)N1CCCCC1 [Example 14]
Challenge: Select the item whose pIC50 value is smaller, choosing between A and B . Kindly state the label of the option you pick.
Response given: B
(B: 6.01, A: 8.10)

====

Experimental protocol: Metabolic stability in rat microsomes, Phase II assay
Type: in vitro ADME
Experimental setup: pH 7.4; rat liver microsomes 0.5 mg/mL, Alamethicin activated, UDPGA, compound 1 μM, 37° C.; read-out: Metabolic Stability (t1/2, min) Phase2
Observable: half-life at 1 μM (min)

These solved cases illustrate the format of a correct answer.
# Molecule, half-life at 1 μM / min
data = [
    ("O=C(c1sc(-c2cccc(F)c2)nc1O)n1ccnc1", 40),
    ("O=C(c1sc(-c2cccc(F)c2)nc1O)N1CCCCCO1", 63),
    ("CN1CCCC1C(=O)c1sc(-c2cccc(F)c2)nc1O (centres unmarked)", 34),
    ("O=C(c1sc(-c2cccc(F)c2)nc1O)N1CCCOC1", 46),
    ("O=C(c1sc(-c2ccccc2O)nc1O)N1CCOCC1", 36),
    ("O=C(c1ccccn1)c1sc(-c2cccc(F)c2)nc1O", 55),
]

a. O=C(c1sc(-c2cccc(F)c2)nc1O)N1CCCO1
b. CC1CCN(C(=O)c2sc(-c3cccc(F)c3)nc2O)O1 (centres unmarked)
c. O=C(c1sc(-c2ccccc2O)nc1O)N1CCCOC1
d. O=C(c1ccco1)c1sc(-c2cccc(F)c2)nc1O
Challenge: Please list the entries, largest half-life at 1 μM first. // list labels; follow requested order
Response given: a, b, c, d

====

Experimental protocol: Metabolic stability in rat microsomes, Phase I assay
Type: in vitro ADME
Experimental setup: pH 7.4; rat liver microsomes 0.5 mg/ml, compound 1 μM, NADP cofactors mixture, 37° C.; read-out: Metabolic Stability (t1/2, min) Phase1
Observable: half-life at 1 μM (min)

These solved cases illustrate the format of a correct answer.
# Compound, Unit info, Quantitative readout
rows = [
    ("O=C(c1sc(-c2cccc(F)c2)nc1O)N1CCOC1", "min", 78),
    ("O=C(c1sc(-c2cccc(F)c2)nc1O)N1CC2CCCC2O1 (centres unmarked)", "min", 82),
    ("O=C(c1sc(-c2cccc(F)c2)nc1O)N1CCCOC1", "min", 55),
]

1. Cn1nnnc1C(=O)c1sc(-c2cccc(F)c2)nc1O
2. O=C(c1sc(-c2ccccc2O)nc1O)C1CCCO1 (centres unmarked)
Challenge: Select the item whose half-life at 1 μM value is smaller, choosing between 1 and 2 . Kindly state the label of the option you pick.
Response given: 2
(2: 56 min, 1: 81 min)

====

Target or test system: UniProt:Q7Z2W7
Experimental protocol: In vitro TRPM8 assay: intracellular calcium levels, Ca2+ sensitive fluorescent dye (FLIPR), agonist Icilin or Cooling Agent 10
Format: cell-based
Design: expressed in transfected cells
Experimental setup: HEK-293 cells stably expressing human TRPM8; agonist Cooling Agent 10 at EC80; read-out: Ca2+ (IC50 μM) Cool 10
Observable: IC50 (µM)

P. O=C(c1sc(-c2cccc(F)c2)nc1O)N1CCCCCO1
Q. O=C(c1cccnc1)c1sc(-c2cccc(F)c2)nc1O
R. O=C(c1sc(-c2ccccc2O)nc1O)N1CCCO1
S. O=C(c1sc(-c2cccc(F)c2)nc1O)n1ccnc1
T. O=C(c1sc(-c2cccc(F)c2)nc1O)N1CCCOC1
Challenge: Given 5 compounds, produce a descending ranking by IC50. // list labels; follow requested order
Response given: S, Q, T, P, R
(S: 1.25 µM, Q: 0.621 µM, T: 0.256 µM, P: 0.121 µM, R: 0.011 µM)

====

Target or test system: human TRPM8 (Homo sapiens, UniProt Q7Z2W7)
Sequence (Q7Z2W7 whole entry): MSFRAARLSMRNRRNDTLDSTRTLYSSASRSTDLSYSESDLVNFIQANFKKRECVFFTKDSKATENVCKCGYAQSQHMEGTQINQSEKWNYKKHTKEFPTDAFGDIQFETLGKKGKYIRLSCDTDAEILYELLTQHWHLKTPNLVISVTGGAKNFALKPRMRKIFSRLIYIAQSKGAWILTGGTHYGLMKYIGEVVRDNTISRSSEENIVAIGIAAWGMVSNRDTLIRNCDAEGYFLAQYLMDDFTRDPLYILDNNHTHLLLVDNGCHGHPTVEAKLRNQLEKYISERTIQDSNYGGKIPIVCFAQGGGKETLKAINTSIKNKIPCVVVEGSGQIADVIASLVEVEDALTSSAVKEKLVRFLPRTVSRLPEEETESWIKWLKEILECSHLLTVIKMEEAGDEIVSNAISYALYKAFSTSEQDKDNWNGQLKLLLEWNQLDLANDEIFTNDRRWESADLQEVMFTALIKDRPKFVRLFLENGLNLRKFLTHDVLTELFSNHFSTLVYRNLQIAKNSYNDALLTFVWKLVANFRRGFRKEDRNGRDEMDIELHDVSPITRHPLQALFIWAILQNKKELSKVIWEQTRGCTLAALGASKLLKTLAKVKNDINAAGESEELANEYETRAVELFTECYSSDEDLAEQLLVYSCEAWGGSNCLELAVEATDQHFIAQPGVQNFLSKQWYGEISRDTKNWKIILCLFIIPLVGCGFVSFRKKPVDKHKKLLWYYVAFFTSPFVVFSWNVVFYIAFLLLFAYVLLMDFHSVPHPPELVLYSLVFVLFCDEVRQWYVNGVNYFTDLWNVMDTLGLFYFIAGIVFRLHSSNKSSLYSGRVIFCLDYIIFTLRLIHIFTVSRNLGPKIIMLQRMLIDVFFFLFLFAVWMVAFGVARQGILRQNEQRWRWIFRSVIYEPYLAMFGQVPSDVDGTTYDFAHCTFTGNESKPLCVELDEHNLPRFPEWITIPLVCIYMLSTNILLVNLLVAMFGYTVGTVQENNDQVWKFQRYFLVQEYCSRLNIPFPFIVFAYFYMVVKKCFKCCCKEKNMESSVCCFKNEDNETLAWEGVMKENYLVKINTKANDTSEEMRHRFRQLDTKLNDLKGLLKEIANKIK
Experimental protocol: In vitro TRPM8 assay: intracellular calcium levels, Ca2+ sensitive fluorescent dye (FLIPR), agonist Icilin or Cooling Agent 10
Assay type: cell-based
Set-up: expressed in transfected cells
Experimental setup: HEK-293 cells stably expressing human TRPM8; agonist Cooling Agent 10 at EC80; read-out: Ca2+ (IC50 μM) Cool 10
Procedure: The TRPM8 antagonistic activity of all 26 compounds was determined by measuring changes in intracellular calcium levels using a Ca^+2 sensitive fluorescent dye. The experiments were performed using HEK-293 cells stably expressing the human TRPM8. […] The compounds or vehicle were added and the kinetic response was monitored by a fluorimetric imaging plate ([…]; Molecular Devices, Sunnyvale, Calif., USA) over a period of five minutes (300 seconds). […]
Observable: IC50 (µM)

# Compound, Observable, Quantitative readout
data = [
    ("O=C(c1sc(-c2cccc(F)c2)nc1O)n1cccn1", "IC50", 1.65),
]

I. Cn1nnnc1C(=O)c1sc(-c2cccc(F)c2)nc1O
II. O=C(c1sc(-c2cccc(F)c2)nc1O)C1CCCO1 (stereo not shown)
III. O=C(c1sc(-c2cccc(F)c2)nc1O)n1ccnn1
IV. O=C(c1sc(-c2cccc(F)c2)nc1O)N1CCCC1
Challenge: Please list the entries, largest IC50 first. // list labels; follow requested order
Response given: IV, III, II, I

I. O=C(c1sc(-c2cccc(F)c2)nc1O)N1CCOCC1
II. O=C(c1sc(-c2ccccc2O)nc1O)C1CCCO1 (stereo not shown)
Challenge: Which value of IC50 is numerically greater: that of I or that of II ? Kindly state the label of the option you pick.
Response given: I
(I: 0.963 µM, II: 0.401 µM)

P. O=C(c1sc(-c2ccccc2O)nc1O)N1CCOCC1
Q. O=C(c1sc(-c2ccccc2O)nc1O)N1CCOC1
Challenge: Select the item whose IC50 value is smaller, choosing between P and Q . Kindly state the label of the option you pick.
Response given: Q
(Q: 0.104 µM, P: 1.12 µM)
